experiment: Permeability from apical to basolateral side in human Caco-2 cells; assay type: ADME, cell-based; conditions: read-out: permeability
assay-metric: Papp A→B
# do not omit the unit; it follows the number

Which measured Papp A→B value corresponds to Cc1[nH]c2c(-c3ccccc3)c(-c3ccccc3)nn2c(=O)c1-c1ccc2ncccc2c1 ?
6.75 ×10⁻⁶ cm/s

----------
assay: Oral bioavailability in monkey at 5 mg/kg; type: ADME, organism-based, Macaca mulatta; details: rhesus monkey, in vivo
assay-metric: bioavailability (%)
Value expressed in %; do not type the unit.

Which measured bioavailability value corresponds to COc1ccc(-c2c(Nc3ccccn3)[nH]c3c(C4=CCCCC4)c(-c4ccccc4)nn3c2=O)cc1 ?
31

----------
assay: Protein binding in mouse plasma assessed as unbound fraction; format: ADME, cell-free
assay-metric: fraction unbound
Returns: the value as a bare number; no unit string appended.

Which measured fraction unbound value corresponds to COc1ccc(-c2c(Nc3ccccn3)[nH]c3c(C4=CCCCC4)c(-c4ccccc4)nn3c2=O)cc1 ?
0.0028

----------
Quick reference for solubility among some compounds
experiment: Solubility of compound at pH 2; assay type: physicochemical; conditions: buffer
Value expressed in µM; do not type the unit.

Cc1[nH]c2c(-c3ccccc3)c(-c3ccccc3)nn2c(=O)c1-c1ccc2ncccc2c1 67

Now look at this one.
Which measured solubility value corresponds to Cc1cc(=O)n2nc(-c3ccccc3)c(N3CCCCC3)c2[nH]1 ?
61

----------
experiment: Protein binding in dog plasma assessed as unbound fraction; assay type: ADME, cell-free, Canis lupus familiaris
assay-metric: fraction unbound
Returns: the value as a bare number; no unit string appended.

Which measured fraction unbound value corresponds to COc1ccc(-c2c(Nc3ccccn3)[nH]c3c(C4=CCCCC4)c(-c4ccccc4)nn3c2=O)cc1 ?
0.028

----------
biological target: S-adenosylmethionine synthase isoform type-2 (Homo sapiens, UniProt P31153); assay: Inhibition of recombinant human MAT2A expressed in baculovirus infected Sf9 cells assessed as S-adenosyl methionine production using L-methionine as substrate incubated for 60 mins followed by substrate addition and measured after 60 mins; details: read-out: IC50
Sequence (P31153 whole entry, canonical isoform): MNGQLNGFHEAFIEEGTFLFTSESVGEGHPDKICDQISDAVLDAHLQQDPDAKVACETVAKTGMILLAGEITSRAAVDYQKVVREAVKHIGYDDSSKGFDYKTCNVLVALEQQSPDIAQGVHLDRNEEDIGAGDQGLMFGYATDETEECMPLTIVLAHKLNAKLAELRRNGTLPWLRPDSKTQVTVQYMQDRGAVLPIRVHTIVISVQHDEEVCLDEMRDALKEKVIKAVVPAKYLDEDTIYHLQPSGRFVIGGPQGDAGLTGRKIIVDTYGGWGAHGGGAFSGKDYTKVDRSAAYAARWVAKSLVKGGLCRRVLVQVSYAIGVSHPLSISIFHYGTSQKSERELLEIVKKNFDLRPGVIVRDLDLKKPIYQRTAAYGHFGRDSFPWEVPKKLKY
Quick reference for IC50 among some compounds
Value expressed in nM; do not type the unit.

Example results:
CC(=O)Nc1cc(=O)n2nc(-c3ccccc3)c(-c3ccccc3)c2[nH]1 4110
O=c1c(-c2ccc(O)cc2)c(Nc2cc[nH]n2)[nH]c2c(-c3ccccc3)c(-c3ccccc3)nn12 7
Cc1[nH]c2c(C3CCCCC3)c(-c3ccccc3)nn2c(=O)c1-c1ccc2ncccc2c1 66

Which measured IC50 value corresponds to CCOC(=O)n1ccc(Nc2[nH]c3c(-c4ccccc4)c(-c4ccccc4)nn3c(=O)c2-c2ccc(OC)cc2)n1 ?
11

What do you get for Cc1[nH]c2c(N3CCCCC3)c(-c3ccccc3)nn2c(=O)c1-c1ccc2ncccc2c1 ?
52

----------
molecular target: S-adenosylmethionine synthase isoform type-2 (Homo sapiens, UniProt P31153); assay: Inhibition of recombinant human MAT2A expressed in baculovirus infected Sf9 cells assessed as S-adenosyl methionine production using L-methionine as substrate incubated for 60 mins followed by substrate addition and measured after 60 mins relative to control; parameters: concentration or dose not given beside the values
Sequence (P31153 whole entry, looked up, canonical isoform): as the sequence (P31153 whole entry, canonical isoform) above
assay-metric: inhibition

Example results:
CCOC(=O)c1nnc(Nc2[nH]c3c(-c4ccccc4)c(-c4ccccc4)nn3c(=O)c2-c2ccc3ncccc3c2)o1 88%
Cc1[nH]c2c(C3CCCCC3)c(-c3ccccc3)nn2c(=O)c1-c1ccc2ncccc2c1 93%
Cc1cc(=O)n2nc(-c3ccco3)c(-c3ccccc3)c2[nH]1 65%
CCc1cc(=O)n2nc(-c3ccccc3)c(-c3ccccc3)c2[nH]1 54%
Cc1[nH]c2c(N3CCCCC3)c(-c3ccccc3)nn2c(=O)c1-c1ccccc1 93%

Which measured inhibition value corresponds to Cc1c(-c2ccc3ncccc3c2)c(=O)n2nc(-c3ccccc3)c(-c3ccccc3)c2n1C ?
61%

What do you get for Cc1cc(=O)n2nc(-c3ccccc3)c(-c3ccccc3)c2[nH]1 ?
69%

What do you get for COc1ccc(-c2c(Nc3ccon3)[nH]c3c(C4=CCCCC4)c(-c4ccccc4)nn3c2=O)cc1 ?
94%

----------
target: S-adenosylmethionine synthase isoform type-2 (Homo sapiens); experiment: Inhibition of recombinant human MAT2A expressed in baculovirus infected Sf9 cells assessed as S-adenosyl methionine production using L-methionine as substrate incubated for 60 mins followed by substrate addition and measured after 60 mins; settings: read-out: IC50
pIC50: −log10 of the molar value.
Classify as follows. Reported pIC50 greater than or equal to 7: yes. Reported pIC50 below: no.

Worked examples follow.
Cc1[nH]c2c(N3CCCCC3)c(-c3ccccc3)nn2c(=O)c1-c1ccc(O)cc1 yes
COc1ccc(-c2c(Nc3cc[nH]n3)[nH]c3c(-c4ccccc4)c(-c4ccccc4)nn3c2=O)cc1 yes
Cc1cc(=O)n2nc(-c3cn[nH]c3)c(-c3ccccc3)c2[nH]1 no
CCc1cc(=O)n2nc(-c3ccccc3)c(-c3ccccc3)c2[nH]1 no
Cc1[nH]c2c(N3CCCCC3)c(-c3ccccc3)nn2c(=O)c1-c1ccc2[nH]cnc2c1 yes

Threshold query (pIC50 >= 7) on Cc1cc(=O)n2nc(-c3ccccc3)c(-c3ccco3)c2[nH]1
no

What do you get for Cc1cc(=O)n2nc(-c3nccs3)c(-c3ccccc3)c2[nH]1 ?
no

What do you get for O=c1c(-c2ccc3ncccc3c2)c(Nc2cc[nH]n2)[nH]c2c(-c3ccccc3)c(-c3ccccc3)nn12 ?
yes

----------
assay: Plasma protein binding in human by ultracentrifugation; format: ADME, cell-free; details: read-out: PPB (converted)
Quick reference for fraction unbound among some molecules
Returns: the value as a bare number; no unit string appended.

Example results:
Cc1c(-c2ccc(O)cc2)c(=O)n2nc(-c3ccccc3)c(N3CCCCC3)c2n1C 0.0154
Cc1c(-c2ccc3ncccc3c2)c(=O)n2nc(-c3ccccc3)c(-c3ccccc3)c2n1C 0.009

Now look at this one.
Which measured fraction unbound value corresponds to Cc1[nH]c2c(N3CCCCC3)c(-c3ccccc3)nn2c(=O)c1-c1ccc(O)cc1 ?
0.001

----------
experiment: Stability in human liver microsomes assessed as extraction ratio; assay type: ADME, Microsome; settings: read-out: ERH
assay-metric: hepatic extraction ratio
Returns: the value as a bare number; no unit string appended.

Which measured hepatic extraction ratio value corresponds to Cc1[nH]c2c(N3CCCCC3)c(-c3ccccc3)nn2c(=O)c1-c1ccc2[nH]cnc2c1 ?
0.79

----------
target: S-adenosylmethionine synthase isoform type-2 (Homo sapiens, UniProt P31153); test: Inhibition of recombinant human MAT2A expressed in baculovirus infected Sf9 cells assessed as S-adenosyl methionine production using L-methionine as substrate incubated for 60 mins followed by substrate addition and measured after 60 mins; conditions: read-out: IC50
Quick reference for pIC50 among some compounds
Lab note: report pIC50 as minus log10 of the concentration in molar units, number only.

Cc1cc(=O)n2nc(-c3ccccc3)c(-c3ccccn3)c2[nH]1 5.15
Cc1cc(=O)n2nc(-c3cccc(O)c3)c(-c3ccccc3)c2[nH]1 4.91
COc1ccc(-c2c(Nc3cnccn3)[nH]c3c(C4=CCCCC4)c(-c4ccccc4)nn3c2=O)cc1 7.55
Cc1cc(=O)n2nc(-c3ccccc3)c(C3=CCCC3)c2[nH]1 5.94
O=c1c(-c2ccc3ncccc3c2)c(Nc2cc[nH]n2)[nH]c2c(C3=CCCCC3)c(-c3ccccc3)nn12 8.40
O=c1cc(Nc2cc[nH]n2)[nH]c2c(-c3ccccc3)c(-c3ccccc3)nn12 6.57
Cc1cc(=O)n2nc(-c3ccccc3)c(N3CCCCC3)c2[nH]1 6.59
O=c1cc(Nc2ccccc2)[nH]c2c(-c3ccccc3)c(-c3ccccc3)nn12 4.78

Now look at this one.
Which measured pIC50 value corresponds to COc1ccc(-c2c(Nc3cc[nH]n3)[nH]c3c(C4=CCCCC4)c(-c4ccccc4)nn3c2=O)cc1 ?
8.30

----------
biological target: S-adenosylmethionine synthase isoform type-2 (Homo sapiens, UniProt P31153); assay: Inhibition of recombinant human MAT2A expressed in baculovirus infected Sf9 cells assessed as S-adenosyl methionine production using L-methionine as substrate incubated for 60 mins followed by substrate addition and measured after 60 mins relative to control; set-up: concentration or dose not given beside the values
assay-metric: inhibition (%)
Value expressed in %; do not type the unit.

Which measured inhibition value corresponds to COc1ccc(-c2c(Nc3cnccn3)[nH]c3c(C4=CCCCC4)c(-c4ccccc4)nn3c2=O)cc1 ?
95

What do you get for O=c1cc(Nc2cc[nH]n2)[nH]c2c(-c3ccccc3)c(-c3ccccc3)nn12 ?
88

What do you get for Cc1[nH]c2c(-c3ccccc3)c(-c3ccccc3)nn2c(=O)c1-c1ccc(O)cc1 ?
93

What do you get for Cc1cc(=O)n2nc(-c3ccccc3)c(-c3ccccn3)c2[nH]1 ?
79

What do you get for CC(=O)Nc1cc(=O)n2nc(-c3ccccc3)c(-c3ccccc3)c2[nH]1 ?
85

What do you get for COc1ccc(-c2c(Nc3cc[nH]n3)[nH]c3c(C4=CCCCC4)c(-c4ccccc4)nn3c2=O)cc1 ?
96

What do you get for O=c1cc(Nc2ccccc2)[nH]c2c(-c3ccccc3)c(-c3ccccc3)nn12 ?
70

What do you get for O=c1c(-c2ccc(O)cc2)c(Nc2cc[nH]n2)[nH]c2c(-c3ccccc3)c(-c3ccccc3)nn12 ?
93

What do you get for Cc1[nH]c2c(N3CCCCC3)c(-c3ccccc3)nn2c(=O)c1-c1ccc2c(c1)OCO2 ?
93

What do you get for O=c1c(-c2ccc3ncccc3c2)c(Nc2cc[nH]n2)[nH]c2c(-c3ccccc3)c(-c3ccccc3)nn12 ?
94
